Tested on: Plasmodium berghei
Experiment: Screen against P. berghei liver stage (PbLuc), transformed with Luciferase, at 10uM
Format: functional, HepG2
Conditions: tested at 10 uM
The whole screen tested about 69,000 compounds, of which about 8,600 (12%) showed an effect of 50% or more. What follows is part of a selection rich in strong results, with near analogues and random picks from the rest.
Endpoint Name: INHIBITION (%)
Only the number, expressed in %, is required.

Previously resolved entries follow.
{"Compound": "Cc1nn(C)c(C)c1NC(=O)CCn1ncc2ccccc21", "INHIBITION, %": 35.8}
{"Compound": "Cc1ccc2cnn(CCC(=O)Nc3c(C)nn(C)c3C)c2c1", "INHIBITION, %": -8.19}
{"Compound": "CCN1CCN(C(C)CNC(=O)Nc2nc3ccccc3s2)CC1 (configuration not stated)", "INHIBITION, %": 59.4}
{"Compound": "COc1ncc(-c2nccn2-c2ccccc2CN2CCOCC2)cn1", "INHIBITION, %": 32.3}
{"Compound": "Cc1ccc(OCC(O)CN2CCC(Cn3cccn3)CC2)cc1 (configuration not stated)", "INHIBITION, %": 28.5}
{"Compound": "CNC(=O)Nc1cc(-c2ccccc2C)nn1CCO", "INHIBITION, %": -60}
{"Compound": "CCc1cc(-c2nccn2-c2ccccc2CN2CCOCC2)on1", "INHIBITION, %": -4.51}
{"Compound": "CCN(CC)C(=O)CNC(=O)c1ccc(-c2ccsc2)nc1C", "INHIBITION, %": 34.5}
{"Compound": "Cc1sc(-c2ccco2)nc1C(=O)N1CCCC1Cn1cccn1 (configuration not stated)", "INHIBITION, %": 34.7}
{"Compound": "CCN(CC)C(=O)CN(C)C(=O)c1ccc(-c2ccsc2)nc1C", "INHIBITION, %": 59.5}

Notebook: CCN1CCN(C(C)CNC(=O)Nc2nnc(C(C)C)s2)CC1 (configuration not stated) , INHIBITION read as -11.6

Entry `CCn1nc(C)c(NC(=O)CCn2ncc3cc(C)ccc32)c1C` — recorded INHIBITION = 50.7
